These data points were gathered from ChEMBL document CHEMBL1143989.

- subject-of-test: Human rhinovirus A protease (Human rhinovirus sp.)
- assay-notes: Inhibition of HRV14 3C protease at 1 uM
- reported-conditions: rhinovirus B14
Measured inhibition, listed per entry.
measured-metric: inhibition (%)

1) NC(=O)c1cc(C(=O)CBr)cc(C(=O)Nc2ccccc2)c1: 27
2) NC(=O)c1cc(Cc2ccccc2)cc(C(=O)CBr)c1: 30
3) NC(=O)c1cc(Cc2ccc3ccccc3c2)cc(C(=O)CBr)c1: 39
4) NC(=O)c1cccc(C(=O)CBr)c1: 23
5) NC(=O)c1cc(Cc2ccc3ccccc3c2)cc(C(=O)CCl)c1: 61
6) O=C(CBr)c1ccc2c(c1)C(=O)NC2: 25
7) NC(=O)c1cc(C(=O)CBr)cc(C(=O)Nc2ccc3ccccc3c2)c1: 19
8) NC(=O)c1cc(Cc2ccccc2)cc(C(=O)C(Br)Br)c1: 27
9) NC(=O)c1cc(Cc2ccccc2)cc(C(=O)CCl)c1: 79

----------
- subject-of-test: UniProt Q4U254
- Sequence (Q4U254 as listed by the source): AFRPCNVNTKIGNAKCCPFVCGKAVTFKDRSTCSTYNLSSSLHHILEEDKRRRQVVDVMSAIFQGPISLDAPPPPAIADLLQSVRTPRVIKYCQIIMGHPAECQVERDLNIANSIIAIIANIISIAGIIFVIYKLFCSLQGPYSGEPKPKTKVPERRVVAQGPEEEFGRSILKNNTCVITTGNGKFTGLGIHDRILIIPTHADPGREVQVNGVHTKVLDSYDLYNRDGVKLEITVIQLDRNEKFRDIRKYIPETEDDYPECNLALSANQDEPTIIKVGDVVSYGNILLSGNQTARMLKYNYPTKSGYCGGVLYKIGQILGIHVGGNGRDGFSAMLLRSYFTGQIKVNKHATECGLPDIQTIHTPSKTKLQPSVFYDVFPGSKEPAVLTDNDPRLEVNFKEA
- assay-notes: Inhibition of HRV14 3C protease at 10 uM
- reported-conditions: rhinovirus B14
Could you label it 1 if measured inhibition is 80% or higher, and -1 otherwise?

1) NC(=O)c1cc(Cc2ccc3ccccc3c2)cc(C(=O)CBr)c1: 1
2) NC(=O)c1cc(Cc2ccccc2)cc(C(=O)CBr)c1: -1
3) NC(=O)c1cc(Cc2ccccc2)cc(C(=O)CCl)c1: 1
4) NC(=O)c1cccc(C(=O)CBr)c1: 1
5) O=C(CBr)c1ccc2c(c1)C(=O)NC2: -1
6) NC(=O)c1cc(Cc2ccccc2)cc(C(=O)C(Br)Br)c1: -1
7) NC(=O)c1cc(C(=O)CBr)cc(C(=O)Nc2ccccc2)c1: 1

----------
- assay-notes: Cytotoxicity against human HeLa cells after 5 days
- Type: cell-based
- reported-conditions: read-out: Maximal non-toxic dose 50
measured-metric: MNTC at 120 h (µg/mL)

1. NC(=O)c1cc(Cc2ccccc2)cc(C(=O)CCl)c1: 0.75
2. NC(=O)c1cccc(C(=O)CCl)c1: 3.12
3. NC(=O)c1cc(Cc2ccc3ccccc3c2)cc(C(=O)CCl)c1: 0.75

----------
- subject-of-test: Human rhinovirus A protease (Human rhinovirus sp.)
- assay-notes: Inhibition of HRV14 3C protease at 10 uM
- reported-conditions: rhinovirus B14
# inhibition per record follows
measured-metric: inhibition

1) NC(=O)c1cccc(C(=O)C(Br)Br)c1: > 50%
2) NC(=O)c1cc(Cc2ccc3ccccc3c2)cc(C(=O)C(Br)Br)c1: > 70%
3) NC(=O)c1cc(C(=O)CBr)cc(C(=O)Nc2ccc3ccccc3c2)c1: 80%
4) NC(=O)c1cc(Cc2ccc3ccccc3c2)cc(C(=O)CCl)c1: 81%
5) NC(=O)c1cccc(C(=O)C(Cl)Cl)c1: > 50%
6) NC(=O)c1cccc(C(=O)CCl)c1: > 50%
